Provide the reported pIC50 of each item.
# System: MRC-5 cells
# assay_overview: alamarBlue cytotoxicity assay, MRC-5
# Assay type: cell-based
# run_parameters: MRC5, human lung fibroblasts, 72 h
Note on pIC50: it is the negative log10 of concentration, concentration in mol/L.

Input: For MRC-5 cells, give the measured pIC50 of the entry C[n+]1c(/C=C/c2ccc(-c3ccc(N(c4ccccc4)c4ccccc4)cc3)s2)sc2ccccc21
Output: 5.41

Input: For MRC-5 cells, give the measured pIC50 of the entry C[n+]1c(/C=C/c2ccccc2)sc2ccccc21.[I-]
Output: 5.69

Input: For MRC-5 cells, give the measured pIC50 of the entry C[n+]1c(/C=C/c2ccc(-c3ccc(-c4ccc(N(c5ccccc5)c5ccccc5)cc4)cc3)o2)sc2ccccc21.[I-]
Output: 5.49

Input: For MRC-5 cells, give the measured pIC50 of the entry Cc1ccc2c(c1)sc(-c1ccc(N(C)C)cc1)[n+]2C [ThT, Thioflavin T, reference compound]
Output: 6.74

Input: For MRC-5 cells, give the measured pIC50 of the entry Cn1cccc1/C=C/c1sc2ccccc2[n+]1C.[I-]
Output: 5.03

Input: For MRC-5 cells, give the measured pIC50 of the entry Cn1cccc1-c1ccc(/C=C/c2sc3ccccc3[n+]2C)s1
Output: 5.43

Input: For MRC-5 cells, give the measured pIC50 of the entry CN(C)c1ccc(/C=C/c2sc3ccccc3[n+]2C)c2ccccc12.[I-]
Output: 5.40

###

Provide the reported ΔTm FEbr1T of each item.
# System: FEbr1T (T. brucei G-quadruplex)
# assay_overview: FRET melting assay, FEbr1T
# Type: binding
# run_parameters: ligand 10 μM, oligonucleotide 200 nM, 10 mM KCl
Express your answer in °C, writing the number without its unit.

Input: Name the recorded ΔTm FEbr1T of the item CN(C)c1ccc(/C=C/c2sc3ccccc3[n+]2C)cc1.[I-] [compound 2b] in your answer.
Output: 13.1

Input: Name the recorded ΔTm FEbr1T of the item C[n+]1c(/C=C/c2ccc(-c3ccc(-c4ccc(N(c5ccccc5)c5ccccc5)cc4)cc3)o2)sc2ccccc21.[I-] [compound 2d] in your answer.
Output: 20.5

Input: Name the recorded ΔTm FEbr1T of the item Cc1ccc2c(c1)sc(-c1ccc(N(C)C)cc1)[n+]2C [ThT, Thioflavin T, reference compound] in your answer.
Output: 4.5
